# SYSTEM TESTED: T1, Human CD3eg linker (human)
# T1 construct: single-chain construct; also called recombinant human CD3
# T1 chain: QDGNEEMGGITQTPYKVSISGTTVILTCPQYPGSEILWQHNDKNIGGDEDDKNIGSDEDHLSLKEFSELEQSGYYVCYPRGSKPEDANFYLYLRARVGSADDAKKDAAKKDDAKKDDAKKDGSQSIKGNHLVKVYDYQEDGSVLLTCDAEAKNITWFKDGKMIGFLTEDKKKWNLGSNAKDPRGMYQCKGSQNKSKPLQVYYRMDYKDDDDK
# TEST NAME: SPR, vs unmutated H183/L072
Recorded measurements of fold change of affinity, one per entry
The figure you give is taken to be in fold; do not add the unit.

Worked examples, 9 binders total:
| BINDER | fold change of affinity (fold) |
| --- | --- |
| dBBDu183H G65S/dBBDu072L (antibody, name in Kabat numbering, V domains shown) VH: QVQLVESGGGLVQPGRSLRLSCAASGFTFSNAWMHWVRQAPGKGLEWVAQIKDKGNAYAAYYAPSVKSRFTISRDDSKNSIYLQMNSLKTEDTAVYYCHYVHYASASTVLPAFGVDAWGQGTTVTVSS VL: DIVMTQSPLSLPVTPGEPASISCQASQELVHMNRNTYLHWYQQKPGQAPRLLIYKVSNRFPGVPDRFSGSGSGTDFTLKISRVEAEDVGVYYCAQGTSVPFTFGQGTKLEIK | 1 |
| dBBDu183H Y94K/dBBDu072L (antibody, name in Kabat numbering, V domains shown) VH: QVQLVESGGGLVQPGRSLRLSCAASGFTFSNAWMHWVRQAPGKGLEWVAQIKDKGNAYAAYYAPSVKGRFTISRDDSKNSIYLQMNSLKTEDTAVYYCHKVHYASASTVLPAFGVDAWGQGTTVTVSS VL: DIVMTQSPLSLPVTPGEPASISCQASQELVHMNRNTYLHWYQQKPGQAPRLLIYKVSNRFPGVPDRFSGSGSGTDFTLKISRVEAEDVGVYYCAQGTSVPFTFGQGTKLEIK | 0 |
| dBBDu183H H93Q/dBBDu072L (antibody, name in Kabat numbering, V domains shown) VH: QVQLVESGGGLVQPGRSLRLSCAASGFTFSNAWMHWVRQAPGKGLEWVAQIKDKGNAYAAYYAPSVKGRFTISRDDSKNSIYLQMNSLKTEDTAVYYCQYVHYASASTVLPAFGVDAWGQGTTVTVSS VL: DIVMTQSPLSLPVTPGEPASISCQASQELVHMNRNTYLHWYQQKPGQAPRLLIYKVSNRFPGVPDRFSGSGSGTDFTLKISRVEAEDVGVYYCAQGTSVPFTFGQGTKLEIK | 0 |
| dBBDu183H A102S/dBBDu072L (antibody, name in Kabat numbering, V domains shown) VH: QVQLVESGGGLVQPGRSLRLSCAASGFTFSNAWMHWVRQAPGKGLEWVAQIKDKGNAYAAYYAPSVKGRFTISRDDSKNSIYLQMNSLKTEDTAVYYCHYVHYASASTVLPAFGVDSWGQGTTVTVSS VL: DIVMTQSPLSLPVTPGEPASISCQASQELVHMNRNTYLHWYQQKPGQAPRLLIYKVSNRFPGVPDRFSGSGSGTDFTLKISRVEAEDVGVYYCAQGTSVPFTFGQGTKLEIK | 1.9 |
| dBBDu183H T100bH/dBBDu072L (antibody, name in Kabat numbering, V domains shown) VH: QVQLVESGGGLVQPGRSLRLSCAASGFTFSNAWMHWVRQAPGKGLEWVAQIKDKGNAYAAYYAPSVKGRFTISRDDSKNSIYLQMNSLKTEDTAVYYCHYVHYASASHVLPAFGVDAWGQGTTVTVSS VL: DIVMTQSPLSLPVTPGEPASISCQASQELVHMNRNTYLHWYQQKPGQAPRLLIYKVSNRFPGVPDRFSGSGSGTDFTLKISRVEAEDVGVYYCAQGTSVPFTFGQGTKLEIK | 1.2 |
| dBBDu183H G65Q/dBBDu072L (antibody, name in Kabat numbering, V domains shown) VH: QVQLVESGGGLVQPGRSLRLSCAASGFTFSNAWMHWVRQAPGKGLEWVAQIKDKGNAYAAYYAPSVKQRFTISRDDSKNSIYLQMNSLKTEDTAVYYCHYVHYASASTVLPAFGVDAWGQGTTVTVSS VL: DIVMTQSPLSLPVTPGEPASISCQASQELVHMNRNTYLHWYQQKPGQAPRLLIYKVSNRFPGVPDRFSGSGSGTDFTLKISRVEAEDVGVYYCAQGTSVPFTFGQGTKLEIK | 1 |
| dBBDu183H S99G/dBBDu072L (antibody, name in Kabat numbering, V domains shown) VH: QVQLVESGGGLVQPGRSLRLSCAASGFTFSNAWMHWVRQAPGKGLEWVAQIKDKGNAYAAYYAPSVKGRFTISRDDSKNSIYLQMNSLKTEDTAVYYCHYVHYAGASTVLPAFGVDAWGQGTTVTVSS VL: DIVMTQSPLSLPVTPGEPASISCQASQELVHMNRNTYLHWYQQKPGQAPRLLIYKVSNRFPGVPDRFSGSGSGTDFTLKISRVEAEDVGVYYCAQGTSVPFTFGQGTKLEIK | 1 |
| dBBDu183H G100hV/dBBDu072L (antibody, name in Kabat numbering, V domains shown) VH: QVQLVESGGGLVQPGRSLRLSCAASGFTFSNAWMHWVRQAPGKGLEWVAQIKDKGNAYAAYYAPSVKGRFTISRDDSKNSIYLQMNSLKTEDTAVYYCHYVHYASASTVLPAFVVDAWGQGTTVTVSS VL: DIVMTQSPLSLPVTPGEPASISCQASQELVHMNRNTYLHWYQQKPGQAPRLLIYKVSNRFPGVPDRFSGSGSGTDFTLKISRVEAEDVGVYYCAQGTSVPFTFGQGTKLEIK | 3.4 |
| dBBDu183H A100K/dBBDu072L (antibody, name in Kabat numbering, V domains shown) VH: QVQLVESGGGLVQPGRSLRLSCAASGFTFSNAWMHWVRQAPGKGLEWVAQIKDKGNAYAAYYAPSVKGRFTISRDDSKNSIYLQMNSLKTEDTAVYYCHYVHYASKSTVLPAFGVDAWGQGTTVTVSS VL: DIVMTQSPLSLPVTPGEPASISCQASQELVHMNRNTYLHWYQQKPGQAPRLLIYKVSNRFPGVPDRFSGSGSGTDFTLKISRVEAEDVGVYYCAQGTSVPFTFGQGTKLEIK | 1.9 |

Would you kindly look at the next entry?
get_value(item= dBBDu183H A102F/dBBDu072L (antibody, name in Kabat numbering, V domains shown) VH: QVQLVESGGGLVQPGRSLRLSCAASGFTFSNAWMHWVRQAPGKGLEWVAQIKDKGNAYAAYYAPSVKGRFTISRDDSKNSIYLQMNSLKTEDTAVYYCHYVHYASASTVLPAFGVDFWGQGTTVTVSS VL: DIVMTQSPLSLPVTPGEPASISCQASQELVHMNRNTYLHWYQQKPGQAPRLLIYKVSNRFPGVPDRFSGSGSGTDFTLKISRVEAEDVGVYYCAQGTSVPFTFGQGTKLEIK , readout=fold change of affinity) returns 2
